Would you mind telling me the reported EC50 of each entry?
Target: hSTING (H232) (Homo sapiens)
Sequence (Q86WV6 whole entry): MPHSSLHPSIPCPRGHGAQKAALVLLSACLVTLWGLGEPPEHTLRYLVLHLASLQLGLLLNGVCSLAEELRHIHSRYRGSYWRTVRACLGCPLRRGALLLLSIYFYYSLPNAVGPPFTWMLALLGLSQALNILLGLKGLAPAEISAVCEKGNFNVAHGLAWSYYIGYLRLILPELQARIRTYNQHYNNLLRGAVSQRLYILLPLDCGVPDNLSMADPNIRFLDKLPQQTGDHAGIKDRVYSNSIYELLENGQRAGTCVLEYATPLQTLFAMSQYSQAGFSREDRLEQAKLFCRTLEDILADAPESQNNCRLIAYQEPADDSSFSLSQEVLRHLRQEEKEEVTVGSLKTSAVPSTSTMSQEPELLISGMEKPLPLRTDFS
Experiment: Luciferase reporter assay in HEK293T-hSTING-Luciferase cells (H232/REF polymorph)
Conditions: EC50 range

Task item: # get_value(readout= EC50, system= hSTING (H232) (Homo sapiens)) for Cc1nn(C)c(CN2C(=O)C(C)(C)c3ccc(C(=O)NCc4cc5ccccc5o4)cc32)c1Br
Reply: ≤ 1 µM

Task item: API: value(readout= EC50, system= hSTING (H232) (Homo sapiens), query= CC1(Cl)C(=O)N(Cc2cc(F)cc(F)c2)c2cc(C(=O)NCc3c(F)cc(F)cc3F)ccc21 (stereo not shown) [Example 144] )
Reply: 1 to 10 µM

Task item: Observed EC50 on hSTING (H232) (Homo sapiens) for CCn1nc(C)cc1CN1C(=O)C(C)(C)c2ccc(C(=O)NCc3c(F)cc(F)cc3F)cc21 , please.
Reply: 1 to 10 µM

Task item: Report EC50 for Cc1cccc(CN2C(=O)C(C)(C)c3ccc(C(=O)NCc4c(F)cc(F)cc4F)cc32)c1F tested on hSTING (H232) (Homo sapiens).
Reply: ≤ 1 µM

Task item: State its EC50 on hSTING (H232) (Homo sapiens): CC1(C)C(=O)N(Cc2cccc(C(N)=O)c2)c2cc(C(=O)NCc3c(F)cc(F)cc3F)ccc21
Reply: 1 to 10 µM

Task item: Please provide the recorded EC50 for CC1(C)C(=O)N(Cc2ccccc2)c2cc(C(=O)NCc3c(F)cc(F)cc3F)ccc21 , tested on hSTING (H232) (Homo sapiens).
Reply: 1 to 10 µM

Task item: Form field - read-out: EC50; system: hSTING (H232) (Homo sapiens); submitted item: CC1(C)C(=O)N(Cc2cccc(F)c2F)c2cc(C(=O)NCc3c(F)cc(F)cc3F)ccc21
Reply: ≤ 1 µM

Task item: Item: CC1(C)C(=O)N(Cc2cc(F)cc(F)c2)c2nc(C(=O)NCc3ccc(F)cc3)ccc21 Test system: hSTING (H232) (Homo sapiens) Read-out: EC50 Value: ?
Reply: 1 to 10 µM

Task item: Form entry - test system: hSTING (H232) (Homo sapiens); read-out: EC50; molecule: Cc1cccc(CNC(=O)c2ccc3c(c2)N(Cc2c(F)cccc2Cl)C(=O)C3(C)C)c1
Reply: 1 to 10 µM

Task item: API: value(readout= EC50, system= hSTING (H232) (Homo sapiens), query= CC1(C)C(=O)N(Cc2c(F)cccc2Cl)c2cc(C(=O)NCc3c(F)cccc3F)ccc21 )
Reply: 1 to 10 µM

Task item: # query: EC50 | item CC1(C)C(=O)N(Cc2cccc(N=[N+]=[N-])c2)c2cc(C(=O)NCc3c(F)cc(F)cc3F)ccc21 | system: hSTING (H232) (Homo sapiens)
Reply: 1 to 10 µM

Task item: Provide the documented EC50 with hSTING (H232) (Homo sapiens) as the system for O=C(NCc1c(F)cc(F)cc1F)c1ccc2c(c1)N(Cc1cc(F)cc(F)c1)C(=O)C21CCCC1
Reply: 1 to 10 µM

Task item: Under hSTING (H232) (Homo sapiens): EC50 value of CC1(C)C(=O)N(Cc2cccc(F)c2)c2cc(C(=O)NCc3c(F)cc(F)cc3F)ccc21 ?
Reply: 1 to 10 µM

Task item: # returns recorded EC50 (system: hSTING (H232) (Homo sapiens)) for CC1(Cl)C(=O)N(Cc2cc(F)cc(F)c2)c2cc(C(=O)NCc3c(F)cc(F)cc3F)ccc21 (stereo not shown) [Example 148]
Reply: 1 to 10 µM

Task item: // map CC1(C)C(=O)N(Cc2c(F)cccc2Cl)c2cc(C(=O)NCc3cc4cc(F)ccc4o3)ccc21 to recorded EC50 (system: hSTING (H232) (Homo sapiens))
Reply: ≤ 1 µM

Task item: Find EC50 (hSTING (H232) (Homo sapiens)) for the entry CC1(C)C(=O)N(Cc2c(F)cccc2Cl)c2cc(C(=O)NCc3ccccc3F)ccc21
Reply: 1 to 10 µM

Task item: Provide the documented EC50 with hSTING (H232) (Homo sapiens) as the system for C=CCC1(C)C(=O)N(Cc2cc(C)nn2CC)c2cc(C(=O)NCc3c(F)cc(F)cc3F)ccc21 (stereo not shown)
Reply: 1 to 10 µM

Task item: // fetch hSTING (H232) (Homo sapiens) EC50 for Cc1ccc(CNC(=O)c2ccc3c(c2)N(Cc2cccc(F)c2F)C(=O)C3(C)C)o1
Reply: 1 to 10 µM

Task item: Lab note: need EC50 for CC1(C)C(=O)N(Cc2noc3ncccc23)c2cc(C(=O)NCc3c(F)cc(F)cc3F)ccc21 on hSTING (H232) (Homo sapiens), anyone have it?
Reply: 1 to 10 µM

Task item: Record lookup: for hSTING (H232) (Homo sapiens), what EC50 belongs to CC1(C)C(=O)N(Cc2cccc(Cl)c2)c2cc(C(=O)NCc3c(F)cc(F)cc3F)ccc21 ?
Reply: 1 to 10 µM

Task item: # returns recorded EC50 (system: hSTING (H232) (Homo sapiens)) for COc1cccc(F)c1CN1C(=O)C(C)(C)c2ccc(C(=O)NCc3c(F)cc(F)cc3F)cc21
Reply: ≤ 1 µM

Task item: Which EC50 is reported with hSTING (H232) (Homo sapiens) for this entry: CC1(C)C(=O)N(Cc2c(F)cccc2Cl)c2cc(C(=O)NCc3cccc(F)c3)ccc21 ?
Reply: 1 to 10 µM

Task item: Give hSTING (H232) (Homo sapiens) EC50 for CC1(C)C(=O)N(Cc2c(F)cccc2Cl)c2cc(C(=O)NCc3ccc4occc4c3)ccc21
Reply: 1 to 10 µM

Task item: Report EC50 for Cc1ccc(CNC(=O)c2ccc3c(c2)N(Cc2c(F)cccc2Cl)C(=O)C3(C)C)o1 tested on hSTING (H232) (Homo sapiens).
Reply: 1 to 10 µM

Task item: # query: EC50 | item CC1(C)C(=O)N(Cc2ccc(F)cc2)c2cc(C(=O)NCc3c(F)cc(F)cc3F)ccc21 | system: hSTING (H232) (Homo sapiens)
Reply: 1 to 10 µM

Task item: Hello, I am looking for reported EC50 with hSTING (H232) (Homo sapiens) for Cc1nn(C)c(CN2C(=O)C(C)(C)c3ccc(C(=O)NCc4c(F)cc(F)cc4F)cc32)c1Br . Could you help?
Reply: ≤ 1 µM

Task item: Observed EC50 on hSTING (H232) (Homo sapiens) for Cc1nn(C)c(CN2C(=O)C(C)(C)c3ccc(C(=O)NCc4cc5cc(F)ccc5o4)cc32)c1F , please.
Reply: ≤ 1 µM

Task item: What reported EC50 corresponds to CC1(C)C(=O)N(Cc2ccccc2C#N)c2cc(C(=O)NCc3c(F)cc(F)cc3F)ccc21 on hSTING (H232) (Homo sapiens)?
Reply: 1 to 10 µM

Task item: Missing value: EC50, hSTING (H232) (Homo sapiens), entry COc1cc(F)cc(CN2C(=O)C(C)(C)c3ccc(C(=O)NCc4c(F)cc(F)cc4F)cc32)c1 . Fill in?
Reply: ≤ 1 µM

Task item: Query for hSTING (H232) (Homo sapiens): what EC50 does the record show for CC1(Cl)C(=O)N(Cc2c(F)cccc2Cl)c2cc(C(=O)NCc3c(F)cc(F)cc3F)ccc21 (stereo not shown) ?
Reply: 1 to 10 µM

Task item: Fill in the recorded EC50 for this molecule, with hSTING (H232) (Homo sapiens) as test system: Cc1ccc(CNC(=O)c2ccc3c(c2)N(Cc2ccc(F)cc2)C(=O)C3(C)C)o1
Reply: > 10 µM

----------
Molecular target: hSTING (H232) (Homo sapiens)
Assay: Luciferase reporter assay in HEK293T-hSTING-Luciferase cells (H232/REF polymorph)
Details: EC50 range
pEC50: −log10 of the molar value.
What pEC50 was measured for each of the following?

Task item: I have this compound here, Cc1ccc(CNC(=O)c2ccc3c(c2)N(Cc2cc(F)cc(F)c2)C(=O)C3(C)C)o1 [Example 16] , and I need its recorded pEC50.
Reply: 5.00 to 6.00

Task item: Consider the compound shown here: CC1(C)C(=O)N(Cc2c(F)cccc2Cl)c2cc(C(=O)NCc3cc4ccc(F)cc4o3)ccc21 [Example 74] What is its recorded pEC50?
Reply: ≥ 6.00

Task item: Form field: reported pEC50 of CC1(C)C(=O)N(Cc2c(F)cccc2Br)c2cc(C(=O)NCc3c(F)cc(F)cc3F)ccc21 [Example 108]
Reply: < 5.00

Task item: Name the reported pEC50 value associated with the compound Cc1cc(CN2C(=O)C(C)(C)c3ccc(C(=O)NCc4cc5ccccc5o4)cc32)n(C)n1 [Example 107]
Reply: 5.00 to 6.00

----------
Target: WT/R232 STING protein (Homo sapiens, UniProt Q86WV6, H232R)
Sequence (Q86WV6 whole entry H232R): as the sequence (Q86WV6 whole entry) above, with H232R counted along it
Experiment: Luciferase reporter assay in HEK293T-hSTING-Luciferase cells (R232)
Settings: 20 hr stimulation, EC50 range
pEC50: −log10 of the molar value.
Measured endpoint: pEC50

Task item: Provide the documented pEC50 with WT/R232 STING protein (Homo sapiens, UniProt Q86WV6, H232R) as the system for O=C(NCc1ccco1)c1ccc2sc(=O)n(Cc3c(F)cccc3Cl)c2c1
Reply: < 5.00

Task item: Write down the reported pEC50 of CC1(C)C(=O)N(Cc2cc(F)cc(F)c2)c2cc(C(=O)NCc3c(F)cc(F)cc3F)ncc21 , test system: WT/R232 STING protein (Homo sapiens, UniProt Q86WV6, H232R).
Reply: < 5.00

Task item: Form entry - test system: WT/R232 STING protein (Homo sapiens, UniProt Q86WV6, H232R); read-out: pEC50; compound: CC1(C)C(=O)N(Cc2ccc(C(N)=O)cc2)c2cc(C(=O)NCc3c(F)cc(F)cc3F)ccc21
Reply: < 5.00

Task item: Checklist item: pEC50 tested on WT/R232 STING protein (Homo sapiens, UniProt Q86WV6, H232R), entry Cc1cc(CN2C(=O)C(C)(C)c3ccc(C(=O)NCc4c(F)cc(F)cc4F)cc32)n(C)n1 , value?
Reply: ≥ 6.00

Task item: What reported pEC50 corresponds to CC1(CC(=O)O)C(=O)N(Cc2cc(F)cc(F)c2)c2cc(C(=O)NCc3c(F)cc(F)cc3F)ccc21 (centres unmarked) on WT/R232 STING protein (Homo sapiens, UniProt Q86WV6, H232R)?
Reply: < 5.00

Task item: Form field - read-out: pEC50; system: WT/R232 STING protein (Homo sapiens, UniProt Q86WV6, H232R); submitted item: CC1(C)C(=O)N(Cc2cc(F)cc(F)c2)c2cc(C(=O)NCc3c(F)cc(F)cc3F)ccc21
Reply: ≥ 6.00

Task item: Provide the documented pEC50 with WT/R232 STING protein (Homo sapiens, UniProt Q86WV6, H232R) as the system for Cn1nc(C(F)(F)F)cc1CN1C(=O)C(C)(C)c2ccc(C(=O)NCc3c(F)cc(F)cc3F)cc21
Reply: 5.00 to 6.00

Task item: Kindly state the measured pEC50 obtained for Cc1cc(CN2C(=O)C(C)(C)c3ccc(C(=O)NCc4cc5ccccc5o4)nc32)ccn1 with WT/R232 STING protein (Homo sapiens, UniProt Q86WV6, H232R).
Reply: 5.00 to 6.00
